Cited source: PubChem BioAssay (NCATS)

Test: Validation screen for small molecules that induce genotoxicity in human embryonic kidney (HEK293T) cells expressing luciferase-tagged ELG1 (AID 493106); further: 0% is about no effect
Settings: luminescence; series mostly up to 46.1 µM
Inconclusive results are not listed. Calls of active or inactive are those of the source. The call rests on the fitted dose curve; in most records, active means well fitted activation curve with a large enough effect; inconclusive means small, poorly fitted or top-dose-only effect; inactive means no such curve, though single readings can be large or run the other way.
Parameter call: string, one of active, inactive

Which outcome was assigned to "CN(C)CC[C@@H](c1ccc(Cl)cc1)c1ccccn1" in this test?
inactive

Which outcome was assigned to "O=C1N=C(O)CN1/N=C/c1ccc(-c2ccc([N+](=O)[O-])cc2)o1" in this test?
inactive

----------
Test system: Es-2
Assay: Primary qHTS to identify gynecologic anti-cancer compounds using libraries of approved drugs and bioactive compounds (AID 1345084); further: on the % scale 0 is the no-effect control and ±100 the full control effect; nearly all actives have a fitted effect of over 55% in size
Details: Gynecologic cancer cell panel viability, ATPlite luminescence, 48 h; series mostly up to 57.5 µM
Inconclusive results are not listed. Active and inactive are the calls of the source. Calls come from the whole dose curve; as a rule, active = well fitted cell-killing curve with a large enough effect; inconclusive = small, poorly fitted or top-dose-only effect, or effect the other way; inactive = flat fitted curve, though single readings scatter.
measure: activity change, negative = cytotoxicity

Worked set:
compound	studyTarget	activity change, negative = cytotoxicity
Cc1ncc([N+](=O)[O-])n1CC(O)CCl (stereo unspecified)	Es-2	inactive
CC1CC(OC(=O)C(O)c2ccccc2)CC(C)(C)N1C (stereo unspecified)	Es-2	inactive
CCCCC/C(C=O)=C\c1ccccc1	Es-2	inactive
CCOc1ccc2ccccc2c1C(=O)N[C@@H]1C(=O)N2[C@@H]1SC(C)(C)[C@@H]2C(=O)O	Es-2	inactive
CNC(=O)Oc1ccc2c(c1)[C@]1(C)CCN(C)[C@@H]1N2C	Es-2	inactive
NS(=O)(=O)c1cc2c(cc1Cl)NC(CSCc1ccccc1)=NS2(=O)=O	Es-2	inactive
O=c1cc(CO)occ1O	Es-2	inactive
OCc1cc(C(O)CNCCCCCCOCCCCc2ccccc2)ccc1O (stereo unspecified)	Es-2	inactive

For every item in the list below, what is its measured activity change, negative = cytotoxicity?
1. [O-][n+]1cccc(CO)c1
2. CC(O)CN(CCN(CC(C)O)CC(C)O)CC(C)O (stereo unspecified)
3. CCN(CC)CCNC(=O)c1cc(Cl)c(N)cc1OC

["inactive", "inactive", "inactive"]

For every item in the list below, what is its measured activity change, negative = cytotoxicity?
1. COc1cc(C)c(Cc2cnc(N)nc2N)cc1OC
2. O=C(O)[C@H](O)c1ccccc1

1: inactive; 2: inactive

----------
Assay: qHTS of pediatric cancer cell lines to identify multiple opportunities for drug repurposing: Primary screen for DAOY cells (AID 1347090);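 further: plate controls were DMSO for no effect and bortezomib for full effect; nearly all actives have a fitted effect of over 55% in size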
Conditions: DAOY medulloblastoma viability, CellTiter-Glo luminescence, 48 h; series mostly up to 46 µM
Inconclusive results are not listed. The source made the active and inactive calls. The call rests on the fitted dose curve; in most records, active means well fitted cell-killing curve with a large enough effect; inconclusive means small, poorly fitted or top-dose-only effect; inactive means flat fitted curve, though single readings scatter.
measure: activity change, negative = cytotoxic

Worked set:
molecule	activity change, negative = cytotoxic
Nc1ccc(S(=O)(=O)NC(=O)c2ccccc2)cc1	inactive
Cc1cc(CC(=O)O)n(C)c1C(=O)c1ccc(Cl)cc1	inactive
CCN(CC)CCNC(=O)c1cc(Cl)c(N)cc1OC	inactive
CCOC(=O)c1ccc(O)cc1	inactive
O=C1O[C@H](CO)[C@@H](O)[C@H](O)[C@H]1O	inactive
CCOC(CN1CCN(CC(C)C(=O)c2ccccc2)CC1)c1ccccc1 (stereo not drawn)	inactive
CN(C)CCCO[C@@H]1[C@H]2OC(C)(C)O[C@H]2O[C@@H]1C(O)CO (stereo partly drawn)	inactive
CCN(CC)C(C)CN1c2ccccc2Sc2ccccc21 (stereo not drawn)	inactive

For every item in the list below, what is its measured activity change, negative = cytotoxic?
1. CCCCCCCCCCCCCCCC(=O)NCCO
2. NC(=O)NC(=O)Cc1ccccc1
3. Oc1cccc(O)c1
4. O=c1[nH]c(=O)c2[nH]c(=O)[nH]c2[nH]1
5. C=CCn1c(=O)n([C@@H]2O[C@H](CO)[C@@H](O)[C@H]2O)c2nc(N)[nH]c(=O)c21

1. inactive
2. inactive
3. inactive
4. -3.8% [at 9.22 µM] (inactive)
5. inactive
